Target sequence: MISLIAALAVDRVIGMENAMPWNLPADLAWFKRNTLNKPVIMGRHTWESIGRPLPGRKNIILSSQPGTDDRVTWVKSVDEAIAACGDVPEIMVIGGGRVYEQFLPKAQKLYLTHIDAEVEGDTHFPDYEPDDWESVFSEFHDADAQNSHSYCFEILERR
pIC50: −log10 of the molar value.

- smiles-text: "Nc1cc2c(N)cc(Cc3ccccc3)cc2[nH]1"
  pIC50: 4.00
